Origin of values: ChEMBL document CHEMBL4257083

- Assay target: Steroid 21-hydroxylase (Homo sapiens, UniProt P08686)
- Sequence (P08686 whole entry): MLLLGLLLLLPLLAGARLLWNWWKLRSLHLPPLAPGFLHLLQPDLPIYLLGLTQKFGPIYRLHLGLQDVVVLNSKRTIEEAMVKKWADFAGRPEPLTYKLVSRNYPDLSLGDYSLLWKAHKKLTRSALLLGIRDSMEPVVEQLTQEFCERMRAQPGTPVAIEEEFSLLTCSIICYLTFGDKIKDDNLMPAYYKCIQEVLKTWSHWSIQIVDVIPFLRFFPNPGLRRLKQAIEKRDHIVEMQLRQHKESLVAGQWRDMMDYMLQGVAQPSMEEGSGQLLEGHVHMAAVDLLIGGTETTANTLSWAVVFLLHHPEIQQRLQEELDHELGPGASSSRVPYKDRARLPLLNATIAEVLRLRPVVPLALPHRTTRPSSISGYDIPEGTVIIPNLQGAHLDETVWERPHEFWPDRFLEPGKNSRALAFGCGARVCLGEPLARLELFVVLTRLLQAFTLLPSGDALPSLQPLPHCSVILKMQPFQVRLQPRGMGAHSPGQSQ
- Assay name: Inhibition of recombinant CYP21 (unknown origin) expressed in human AD293 cells using 17alpha-hydroxyprogesterone as substrate pretreated for 60 mins followed by substrate addition and measured after 45 mins by LC/MS analysis
Parameter: IC50 (nM)

CS(=O)(=O)N1CCN(c2ccc(/C=C/c3cc(Cl)cc(Cn4ccnc4)c3)cc2)CC1 = 2200
Clc1cc(/C=C/c2ccc(N3CCN(C4=NCCO4)CC3)cc2)cc(Cn2ccnc2)c1 = 3500
Fc1cc(/C=C/c2ccc(N3CCN(C4=NCCCO4)CC3)cc2)cc(Cn2ccnc2)c1 = 1000
CS(=O)(=O)N1CCN(c2ccc(/C=C/c3cc(Cl)cc(-c4ccncc4)c3)cc2)CC1 = 840
Clc1cc(/C=C/c2ccc(N3CCN(C4=NCCO4)CC3)cc2)cc(-c2ccncc2)c1 = 1200
CS(=O)(=O)N1CCN(c2ccc(/C=C/c3cc(F)cc(-c4ccncc4)c3)cc2)CC1 = 740
O=S(=O)(C1CC1)N1CCN(c2ccc(/C=C/c3cc(Cl)cc(Cn4ccnc4)c3)cc2)CC1 = 340
Fc1cc(/C=C/c2ccc(N3CCN(C4=NCCO4)CC3)cc2)cc(-c2ccncc2)c1 = 1200
O=S(=O)(CCCCl)N1CCN(c2ccc(/C=C/c3cc(Cl)cc(Cn4ccnc4)c3)cc2)CC1 = 2870
CC(C)S(=O)(=O)N1CCN(c2ccc(/C=C/c3cc(Cl)cc(-c4ccncc4)c3)cc2)CC1 = 565
CC(=O)N1CCN(c2ccc(/C=C/c3cc(F)cc(-c4ccncc4)c3)cc2)CC1 = 430
N#Cc1cccc(S(=O)(=O)N2CCN(c3ccc(/C=C/c4cc(Cl)cc(Cn5ccnc5)c4)cc3)CC2)c1 = 1200
O=S(=O)(C1CC1)N1CCN(c2ccc(/C=C/c3cc(Cl)cc(-c4ccncc4)c3)cc2)CC1 = 416
CC(=O)N1CCN(c2ccc(/C=C/c3cc(O)cc(-n4ccnc4)c3)cc2)CC1 = 1950
O=[N+]([O-])c1cccc(S(=O)(=O)N2CCN(c3ccc(/C=C/c4cc(Cl)cc(Cn5ccnc5)c4)cc3)CC2)c1 = 160
CC(=O)N1CCN(c2ccc(/C=C/c3cc(O)cc(Cn4ccnc4)c3)cc2)CC1 = 2400
CC(C)S(=O)(=O)N1CCN(c2ccc(/C=C/c3cc(F)cc(Cn4ccnc4)c3)cc2)CC1 = 700
CC(C)S(=O)(=O)N1CCN(c2ccc(/C=C/c3cc(Cl)cc(Cn4ccnc4)c3)cc2)CC1 = 85
CCS(=O)(=O)N1CCN(c2ccc(/C=C/c3cc(Cl)cc(Cn4ccnc4)c3)cc2)CC1 = 540

====

- Assay name: Tmax in guinea pig at 10 mg/kg, po
- Type: ADME, organism-based, Cavia porcellus
- Condition summary: in vivo
Parameter: Tmax (h)

CC(=O)N1CCN(c2ccc(/C=C/c3cc(F)cc(-c4ccncc4)c3)cc2)CC1 = 3
CCS(=O)(=O)N1CCN(c2ccc(/C=C/c3cc(F)cc(-c4ccncc4)c3)cc2)CC1 = 5.33
O=S(=O)(N1CCN(c2ccc(/C=C/c3cc(F)cc(-c4ccncc4)c3)cc2)CC1)C(F)(F)F = 3.33
O=S(=O)(C1CC1)N1CCN(c2ccc(/C=C/c3cc(F)cc(-c4ccncc4)c3)cc2)CC1 = 8

====

- Assay target: Cytochrome P450 11B1, mitochondrial (Homo sapiens, UniProt P15538)
- Sequence (P15538 whole entry): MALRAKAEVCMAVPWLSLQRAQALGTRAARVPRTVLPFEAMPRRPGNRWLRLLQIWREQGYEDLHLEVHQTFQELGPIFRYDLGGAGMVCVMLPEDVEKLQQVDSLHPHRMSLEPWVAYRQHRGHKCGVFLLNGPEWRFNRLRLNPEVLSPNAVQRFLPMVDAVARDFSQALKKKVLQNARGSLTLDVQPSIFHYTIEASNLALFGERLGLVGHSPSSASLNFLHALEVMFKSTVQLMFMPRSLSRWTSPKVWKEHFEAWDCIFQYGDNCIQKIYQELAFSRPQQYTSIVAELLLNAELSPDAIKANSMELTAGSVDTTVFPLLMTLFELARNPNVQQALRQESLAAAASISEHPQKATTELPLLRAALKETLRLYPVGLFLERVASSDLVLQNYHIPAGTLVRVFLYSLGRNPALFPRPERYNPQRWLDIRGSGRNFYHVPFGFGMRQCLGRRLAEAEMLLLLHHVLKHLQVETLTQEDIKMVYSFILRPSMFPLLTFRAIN
- Assay name: Inhibition of recombinant CYP11B1 (unknown origin) expressed in human AD293 cells using 11-deoxycortisol as substrate pretreated for 60 mins followed by substrate addition and measured after 12 hrs by LC/MS analysis
Quick reference for IC50 among some molecules
Parameter: IC50 (nM)

N#CCS(=O)(=O)N1CCN(c2ccc(/C=C/c3cc(F)cc(Cn4ccnc4)c3)cc2)CC1 = 73
O=S(=O)(c1c[nH]cn1)N1CCN(c2ccc(/C=C/c3cc(Cl)cc(Cn4ccnc4)c3)cc2)CC1 = 7
O=[N+]([O-])c1cccc(S(=O)(=O)N2CCN(c3ccc(/C=C/c4cc(Cl)cc(Cn5ccnc5)c4)cc3)CC2)c1 = 4
Fc1cc(/C=C/c2ccc(N3CCN(C4=NCCO4)CC3)cc2)cc(-c2ccncc2)c1 = 1800
CC(C)S(=O)(=O)N1CCN(c2ccc(/C=C/c3cc(Cl)cc(Cn4ccnc4)c3)cc2)CC1 = 240
CC(=O)N1CCN(c2ccc(/C=C/c3cc(F)cc(-c4ccncc4)c3)cc2)CC1 = 1200
N=C(N)N1CCN(c2ccc(/C=C/c3cc(Cl)cc(Cn4ccnc4)c3)cc2)CC1 = 1300

====

- Assay target: Cytochrome P450 11B1, mitochondrial (Homo sapiens, UniProt P15538)
- Assay name: Inhibition of recombinant CYP11B1 (unknown origin) expressed in human AD293 cells using 11-deoxycortisol as substrate pretreated for 60 mins followed by substrate addition and measured after 12 hrs by LC/MS analysis
Parameter: log10 IC50 (log10 of the value in nM)

O=S(=O)(C1CC1)N1CCN(c2ccc(/C=C/c3cc(Cl)cc(-c4ccncc4)c3)cc2)CC1 = 1.71
O=C(c1cccc([N+](=O)[O-])c1)N1CCN(c2ccc(/C=C/c3cc(Cl)cc(Cn4ccnc4)c3)cc2)CC1 = 0.60
N=C(N)N1CCN(c2ccc(/C=C/c3cc(F)cc(-c4ccncc4)c3)cc2)CC1 = 3.56
O=C(c1cccnc1)N1CCN(c2ccc(/C=C/c3cc(Cl)cc(Cn4ccnc4)c3)cc2)CC1 = 0.69
CC(C)S(=O)(=O)N1CCN(c2ccc(/C=C/c3cc(F)cc(Cn4ccnc4)c3)cc2)CC1 = 0.70
CS(=O)(=O)N1CCN(c2ccc(/C=C/c3cc(F)cc(Cn4ccnc4)c3)cc2)CC1 = 1.69
N#Cc1cccc(S(=O)(=O)N2CCN(c3ccc(/C=C/c4cc(Cl)cc(Cn5ccnc5)c4)cc3)CC2)c1 = 0.60
CS(=O)(=O)N1CCN(c2ccc(/C=C/c3cc(Cl)cc(-c4ccncc4)c3)cc2)CC1 = 2.65
Clc1cc(/C=C/c2ccc(N3CCN(C4=NCCO4)CC3)cc2)cc(-c2ccncc2)c1 = 3.54
O=S(=O)(CCCCl)N1CCN(c2ccc(/C=C/c3cc(Cl)cc(Cn4ccnc4)c3)cc2)CC1 = 1.11
CC(=O)N1CCN(c2ccc(/C=C/c3cc(O)cc(-n4ccnc4)c3)cc2)CC1 = 3.68
Fc1cc(/C=C/c2ccc(N3CCN(C4=NCCO4)CC3)cc2)cc(Cn2ccnc2)c1 = 2.11
Fc1cc(/C=C/c2ccc(N3CCN(C4=NCCCO4)CC3)cc2)cc(Cn2ccnc2)c1 = 1.23
CS(=O)(=O)N1CCN(c2ccc(/C=C/c3cc(F)cc(-c4ccncc4)c3)cc2)CC1 = 2.30
CC(=O)N1CCN(c2ccc(/C=C/c3cc(O)cc(Cn4ccnc4)c3)cc2)CC1 = 1.71
Clc1cc(/C=C/c2ccc(N3CCN(C4=NCCO4)CC3)cc2)cc(Cn2ccnc2)c1 = 2.11
CC(C)S(=O)(=O)N1CCN(c2ccc(/C=C/c3cc(Cl)cc(-c4ccncc4)c3)cc2)CC1 = 1.76
N=C(N)N1CCN(c2ccc(/C=C/c3cc(F)cc(Cn4ccnc4)c3)cc2)CC1 = 3.15
Oc1cc(/C=C/c2ccc(Br)cc2)cc(-n2ccnc2)c1 = 3.15

====

- Assay target: Steroid 17-alpha-hydroxylase/17,20 lyase (Homo sapiens, UniProt P05093)
- Sequence (P05093 whole entry): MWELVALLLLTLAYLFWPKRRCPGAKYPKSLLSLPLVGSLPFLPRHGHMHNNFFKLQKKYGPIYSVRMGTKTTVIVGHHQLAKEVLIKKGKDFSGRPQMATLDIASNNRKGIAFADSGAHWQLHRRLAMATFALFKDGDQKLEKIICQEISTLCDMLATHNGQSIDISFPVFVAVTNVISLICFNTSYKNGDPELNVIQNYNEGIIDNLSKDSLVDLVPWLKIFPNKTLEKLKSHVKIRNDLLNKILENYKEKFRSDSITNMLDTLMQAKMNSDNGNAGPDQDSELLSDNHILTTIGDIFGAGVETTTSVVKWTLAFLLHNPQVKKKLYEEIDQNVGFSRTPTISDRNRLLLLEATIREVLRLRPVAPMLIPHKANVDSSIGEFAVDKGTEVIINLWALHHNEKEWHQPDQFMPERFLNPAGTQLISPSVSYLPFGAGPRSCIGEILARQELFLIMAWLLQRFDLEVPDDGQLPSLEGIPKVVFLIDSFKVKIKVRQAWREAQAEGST
- Assay name: Inhibition of recombinant CYP17 (unknown origin) expressed in human AD293 cells using 21[3H]-17alpha-hydroxyl-pregnenolone as substrate pretreated for 60 mins followed by substrate addition and measured after 4 hrs by Topcount method
In this section, each of the molecules is paired with its reported log10(IC50).
Parameter: log10(IC50) (log10 of the value in nM)

N#CCS(=O)(=O)N1CCN(c2ccc(/C=C/c3cc(F)cc(Cn4ccnc4)c3)cc2)CC1 = 1.93
O=S(=O)(C1CC1)N1CCN(c2ccc(/C=C/c3cc(Cl)cc(-c4ccncc4)c3)cc2)CC1 = 0.70
N#Cc1cccc(S(=O)(=O)N2CCN(c3ccc(/C=C/c4cc(Cl)cc(Cn5ccnc5)c4)cc3)CC2)c1 = 1.32
CC(C)S(=O)(=O)N1CCN(c2ccc(/C=C/c3cc(F)cc(Cn4ccnc4)c3)cc2)CC1 = 1.59
Clc1cc(/C=C/c2ccc(N3CCN(C4=NCCO4)CC3)cc2)cc(Cn2ccnc2)c1 = 2.00
O=S(=O)(CCCCl)N1CCN(c2ccc(/C=C/c3cc(Cl)cc(Cn4ccnc4)c3)cc2)CC1 = 1.49
CC(=O)N1CCN(c2ccc(/C=C/c3cc(Cl)cc(Cn4ccnc4)c3)cc2)CC1 = 1.62
CC(C)S(=O)(=O)N1CCN(c2ccc(/C=C/c3cc(Cl)cc(-c4ccncc4)c3)cc2)CC1 = 0.70
CC(=O)N1CCN(c2ccc(/C=C/c3cc(O)cc(-n4ccnc4)c3)cc2)CC1 = 2.34
N=C(N)N1CCN(c2ccc(/C=C/c3cc(F)cc(-c4ccncc4)c3)cc2)CC1 = 1.26
CS(=O)(=O)N1CCN(c2ccc(/C=C/c3cc(Cl)cc(Cn4ccnc4)c3)cc2)CC1 = 2.26
Clc1cc(/C=C/c2ccc(N3CCN(C4=NCCO4)CC3)cc2)cc(-c2ccncc2)c1 = 0.70
CS(=O)(=O)N1CCN(c2ccc(/C=C/c3cc(F)cc(-c4ccncc4)c3)cc2)CC1 = 0.70
CC(=O)N1CCN(c2ccc(CCc3cc(F)cc(-c4ccncc4)c3)cc2)CC1 = 1.32
CS(=O)(=O)N1CCN(c2ccc(/C=C/c3cc(F)cc(Cn4ccnc4)c3)cc2)CC1 = 1.76
CS(=O)(=O)N1CCN(c2ccc(/C=C/c3cc(Cl)cc(-c4ccncc4)c3)cc2)CC1 = 0.70
N=C(N)N1CCN(c2ccc(/C=C/c3cc(Cl)cc(Cn4ccnc4)c3)cc2)CC1 = 3.40
O=C(c1cccc([N+](=O)[O-])c1)N1CCN(c2ccc(/C=C/c3cc(Cl)cc(Cn4ccnc4)c3)cc2)CC1 = 1.23
O=[N+]([O-])c1cc(S(=O)(=O)N2CCN(c3ccc(/C=C/c4cc(Cl)cc(Cn5ccnc5)c4)cc3)CC2)ccc1Cl = 2.03
Fc1cc(/C=C/c2ccc(N3CCN(C4=NCCCO4)CC3)cc2)cc(Cn2ccnc2)c1 = 1.62
Fc1cc(/C=C/c2ccc(N3CCN(C4=NCCO4)CC3)cc2)cc(-c2ccncc2)c1 = 0.70
CC(C)S(=O)(=O)N1CCN(c2ccc(/C=C/c3cc(Cl)cc(Cn4ccnc4)c3)cc2)CC1 = 1.58
